The reported measurements were obtained from paper PMC8458982.

# Target Or Test System: mTRPC6 mutant ^mY704W (Mus musculus, UniProt Q61143, Y704W)
# Sequence (Q61143 whole entry Y704W): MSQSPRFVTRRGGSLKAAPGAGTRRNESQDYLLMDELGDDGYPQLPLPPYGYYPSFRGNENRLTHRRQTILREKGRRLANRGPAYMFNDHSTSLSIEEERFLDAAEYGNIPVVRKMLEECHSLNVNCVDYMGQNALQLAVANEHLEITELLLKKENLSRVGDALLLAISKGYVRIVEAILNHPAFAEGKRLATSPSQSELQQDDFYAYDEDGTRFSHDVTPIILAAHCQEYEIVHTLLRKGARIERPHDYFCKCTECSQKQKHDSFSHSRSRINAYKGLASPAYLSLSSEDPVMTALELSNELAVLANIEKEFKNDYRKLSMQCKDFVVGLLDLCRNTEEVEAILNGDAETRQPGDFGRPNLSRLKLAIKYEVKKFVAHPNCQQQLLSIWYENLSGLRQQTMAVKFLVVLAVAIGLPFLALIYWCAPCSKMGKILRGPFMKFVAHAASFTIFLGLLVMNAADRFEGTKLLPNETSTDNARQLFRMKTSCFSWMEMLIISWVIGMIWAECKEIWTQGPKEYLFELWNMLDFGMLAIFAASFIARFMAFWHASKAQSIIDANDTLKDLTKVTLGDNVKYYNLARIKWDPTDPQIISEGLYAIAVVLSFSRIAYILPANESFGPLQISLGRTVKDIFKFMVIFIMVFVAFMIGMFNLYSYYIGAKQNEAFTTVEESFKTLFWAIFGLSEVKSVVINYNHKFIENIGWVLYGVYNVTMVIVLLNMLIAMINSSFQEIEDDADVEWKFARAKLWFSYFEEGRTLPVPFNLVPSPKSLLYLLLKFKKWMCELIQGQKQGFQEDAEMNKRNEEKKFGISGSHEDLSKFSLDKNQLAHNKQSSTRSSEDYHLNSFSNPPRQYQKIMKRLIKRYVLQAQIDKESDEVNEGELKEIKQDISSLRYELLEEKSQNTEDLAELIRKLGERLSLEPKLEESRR
# Test Description: whole-cell patch-clamp, mTRPC6 mutant Y704W
Readout Label: pEC50
Schema: pEC50 number; meaning minus log10 of the concentration expressed in molar units.

Exercise: Report the value of pEC50 obtained on mTRPC6 mutant ^mY704W (Mus musculus, UniProt Q61143, Y704W) for CCOC(=O)N1CCC(c2cc(O)n3nc(C)c(-c4ccc(F)cc4)c3n2)CC1 [M085] .
Solution: 4.57

====

# Target Or Test System: hTRPC6 mutant ^hN702Q (Homo sapiens, UniProt Q9Y210, N702Q)
# Sequence (Q9Y210 1-931 N702Q): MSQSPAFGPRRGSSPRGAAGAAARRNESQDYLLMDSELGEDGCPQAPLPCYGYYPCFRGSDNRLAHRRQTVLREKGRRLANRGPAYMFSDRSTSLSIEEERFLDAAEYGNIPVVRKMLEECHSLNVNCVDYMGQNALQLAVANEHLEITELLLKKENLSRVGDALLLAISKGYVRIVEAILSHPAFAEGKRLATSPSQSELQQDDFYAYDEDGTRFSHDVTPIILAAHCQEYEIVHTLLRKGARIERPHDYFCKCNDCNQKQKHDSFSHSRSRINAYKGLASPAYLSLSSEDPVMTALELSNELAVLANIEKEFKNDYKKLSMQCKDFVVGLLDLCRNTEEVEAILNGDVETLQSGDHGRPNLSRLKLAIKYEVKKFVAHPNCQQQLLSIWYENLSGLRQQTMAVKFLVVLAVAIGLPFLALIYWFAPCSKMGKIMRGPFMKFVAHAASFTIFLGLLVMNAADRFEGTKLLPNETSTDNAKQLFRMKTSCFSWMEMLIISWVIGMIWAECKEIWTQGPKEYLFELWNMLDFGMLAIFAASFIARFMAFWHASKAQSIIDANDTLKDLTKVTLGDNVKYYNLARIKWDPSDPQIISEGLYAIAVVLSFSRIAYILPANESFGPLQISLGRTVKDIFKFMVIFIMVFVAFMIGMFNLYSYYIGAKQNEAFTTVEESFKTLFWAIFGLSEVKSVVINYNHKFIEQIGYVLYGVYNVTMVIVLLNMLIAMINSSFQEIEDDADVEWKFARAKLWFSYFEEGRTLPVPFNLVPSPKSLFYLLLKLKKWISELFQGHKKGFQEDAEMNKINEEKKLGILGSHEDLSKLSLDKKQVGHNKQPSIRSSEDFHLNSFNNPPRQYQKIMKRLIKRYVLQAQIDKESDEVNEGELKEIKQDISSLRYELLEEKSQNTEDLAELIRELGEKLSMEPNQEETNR
# Test Description: whole-cell patch-clamp, hTRPC6 mutant N702Q
Readout Label: EC50 (µM)
The figure you give is taken to be in µM; do not add the unit.

Exercise: Item CCOC(=O)N1CCC(c2cc(O)n3nc(C)c(-c4ccc(F)cc4)c3n2)CC1 : provide EC50
Solution: 54.5
